Listed here: items and their measured Ki.
Target: human a-thrombin (Homo sapiens)
Construct: human a-thrombin
Assay: Proteinase inhibition, human a-thrombin
Type: biochemical
Conditions: 25° C., 0.05M TRIS buffer pH 7.4, 0.15M NaCl, 0.1% PEG
Write the answer as a number in nM, unit excluded.

So, N=C(N)N1CCC(CNC(=O)[C@@H]2CCCN2C(=O)C2(O)c3ccccc3-c3ccccc32)CC1 ? Its Ki was 1.1

Notebook: N=C(N)N1CCC(CNC(=O)[C@@H]2CCCN2C(=O)CC(c2ccccc2)c2ccccc2)CC1 , Ki read as 2.7
